Test: Plasma pharmacokinetics of sildenafil and its N-oxide
Assay type: in vivo
Settings: male, NMRI, mouse, iv; mice, plasma, i.v. 1 mg/kg, Tend = 7 hrs; read-out: AUC0→end
Attribute Measured: AUC

Which AUC reading was recorded for the compound CCCc1nn(C)c2c(=O)[nH]c(-c3cc(S(=O)(=O)N4CCN(C)CC4)ccc3OCC)nc12 [Sildenafil, reference compound] ?
232 ng·h/mL

----------
# Tmax values compiled below
Assay: Plasma pharmacokinetics of sildenafil and its N-oxide
Assay type: in vivo
Settings: male, NMRI, mouse, po; mice, plasma, p.o. 10 mg/kg
State just the number; it will be interpreted in min.

CCCc1nn(C)c2c(=O)[nH]c(-c3cc(S(=O)(=O)N4CCN(C)CC4)ccc3OCC)nc12 [Sildenafil, reference compound]; 12

Query molecule follows.
Which Tmax reading was recorded for the molecule CCCc1nn(C)c2c(=O)[nH]c(-c3cc(S(=O)(=O)N4CC[N+](C)([O-])CC4)ccc3OCC)nc12 [Sildenafil-N-oxide] ?
60

----------
Assay: Plasma pharmacokinetics of sildenafil and its N-oxide
Assay type: in vivo
Details: male, NMRI, mouse, plasma, po, 10 mg/kg; mice; i.v.
Experimental: Liquid Chromatography-Tandem Mass Spectrometry (LC-MS/MS) was performed using a Sciex API4000 LC-MS/MS. […] Compound peak area was used for quantification. […] LC-MS/MS system performance was monitored using a reference solution injected at standard intervals. […] The Lower Limit Of Quantification (LLOQ) was established at 1.00 ng/ml and 5.00 ng/brain, for plasma and brain samples, respectively. […]
Attribute Measured: bioavailability (%)
State just the number; it will be interpreted in %.

CCCc1nn(C)c2c(=O)[nH]c(-c3cc(S(=O)(=O)N4CC[N+](C)([O-])CC4)ccc3OCC)nc12 [Sildenafil-N-oxide]; 1.5

Which bioavailability reading was recorded for the molecule CCCc1nn(C)c2c(=O)[nH]c(-c3cc(S(=O)(=O)N4CCN(C)CC4)ccc3OCC)nc12 [Sildenafil, reference compound] ?
28.9

----------
Experiment: Plasma pharmacokinetics of sildenafil and its N-oxide
Assay type: in vivo
Conditions: male, NMRI, mouse, po; mice, plasma, p.o. 10 mg/kg, Tend = 24 hrs; read-out: AUC0→end
Attribute Measured: AUC (ng·h/mL)
State just the number; it will be interpreted in ng·h/mL.

Which AUC reading was recorded for the molecule CCCc1nn(C)c2c(=O)[nH]c(-c3cc(S(=O)(=O)N4CC[N+](C)([O-])CC4)ccc3OCC)nc12 [Sildenafil-N-oxide] ?
10.8

----------
# Cmax values compiled below
Experiment: Plasma pharmacokinetics of sildenafil and its N-oxide
Format: in vivo
Conditions: male, NMRI, mouse, iv; mice, plasma, i.v. 1 mg/kg; extrapolated to T0 (time zero); read-out: Cmax (C0)

CCCc1nn(C)c2c(=O)[nH]c(-c3cc(S(=O)(=O)N4CCN(C)CC4)ccc3OCC)nc12 [Sildenafil, reference compound]; 538 ng/mL

Query molecule follows.
Which Cmax reading was recorded for the molecule CCCc1nn(C)c2c(=O)[nH]c(-c3cc(S(=O)(=O)N4CC[N+](C)([O-])CC4)ccc3OCC)nc12 [Sildenafil-N-oxide] ?
495 ng/mL

----------
Experiment: Plasma pharmacokinetics of sildenafil and its N-oxide
Type: in vivo
Settings: male, NMRI, mouse, po; mice, plasma, p.o. 10 mg/kg, Tend = 7 hrs; read-out: AUC0→end
Attribute Measured: AUC (ng·h/mL)
State just the number; it will be interpreted in ng·h/mL.

Which AUC reading was recorded for the molecule CCCc1nn(C)c2c(=O)[nH]c(-c3cc(S(=O)(=O)N4CCN(C)CC4)ccc3OCC)nc12 [Sildenafil, reference compound] ?
661

----------
Experiment: Plasma pharmacokinetics of sildenafil and its N-oxide
Format: in vivo
Conditions: male, NMRI, mouse, brain, po; mice, p.o. 10 mg/kg; read-out: Brain/plasma ratio
Attribute Measured: Kp

Which Kp reading was recorded for the compound CCCc1nn(C)c2c(=O)[nH]c(-c3cc(S(=O)(=O)N4CC[N+](C)([O-])CC4)ccc3OCC)nc12 [Sildenafil-N-oxide] ?
2.5

----------
Test: Plasma pharmacokinetics of sildenafil and its N-oxide
Format: in vivo
Details: male, NMRI, mouse, plasma, iv; mice, i.v. 1 mg/kg
Attribute Measured: Vd
A bare number is not enough; add the unit after it.

CCCc1nn(C)c2c(=O)[nH]c(-c3cc(S(=O)(=O)N4CC[N+](C)([O-])CC4)ccc3OCC)nc12 [Sildenafil-N-oxide]; 5 L/kg

Which Vd reading was recorded for the compound CCCc1nn(C)c2c(=O)[nH]c(-c3cc(S(=O)(=O)N4CCN(C)CC4)ccc3OCC)nc12 [Sildenafil, reference compound] ?
8.9 L/kg

----------
Experiment: Plasma pharmacokinetics of sildenafil and its N-oxide
Format: in vivo
Conditions: male, NMRI, mouse, brain, iv; mice, i.v. 1 mg/kg; read-out: Brain/plasma ratio
Description: Liquid Chromatography-Tandem Mass Spectrometry (LC-MS/MS) was performed using a Sciex API4000 LC-MS/MS. […] Compound peak area was used for quantification. […] LC-MS/MS system performance was monitored using a reference solution injected at standard intervals. […] The Lower Limit Of Quantification (LLOQ) was established at 1.00 ng/ml and 5.00 ng/brain, for plasma and brain samples, respectively. […]
Attribute Measured: Kp
Form rule: numeric answer, no unit written next to it.

Which Kp reading was recorded for the compound CCCc1nn(C)c2c(=O)[nH]c(-c3cc(S(=O)(=O)N4CC[N+](C)([O-])CC4)ccc3OCC)nc12 [Sildenafil-N-oxide] ?
0.5

----------
Assay: Plasma pharmacokinetics of sildenafil and its N-oxide
Assay type: in vivo
Conditions: male, NMRI, mouse, iv; mice, plasma, i.v. 1 mg/kg, Tend = 3 hrs; read-out: AUC0→end
Attribute Measured: AUC
A bare number is not enough; add the unit after it.

Which AUC reading was recorded for the compound CCCc1nn(C)c2c(=O)[nH]c(-c3cc(S(=O)(=O)N4CC[N+](C)([O-])CC4)ccc3OCC)nc12 [Sildenafil-N-oxide] ?
125 ng·h/mL

----------
Assay: Plasma pharmacokinetics of sildenafil and its N-oxide
Type: in vivo
Conditions: male, NMRI, mouse, iv; mice, plasma, i.v. 1 mg/kg, Tend = ∞
Attribute Measured: AUC(0-inf) (ng·h/mL)
State just the number; it will be interpreted in ng·h/mL.

CCCc1nn(C)c2c(=O)[nH]c(-c3cc(S(=O)(=O)N4CCN(C)CC4)ccc3OCC)nc12 [Sildenafil, reference compound]; 232

Query compound follows.
Which AUC(0-inf) reading was recorded for the compound CCCc1nn(C)c2c(=O)[nH]c(-c3cc(S(=O)(=O)N4CC[N+](C)([O-])CC4)ccc3OCC)nc12 [Sildenafil-N-oxide] ?
125
